- Experimental Target: HLA-A*24:02
- Assay Notes: IEDB peptide-MHC binding, purified MHC/competitive/fluorescence; filed as Kd, often an IC50 or EC50 that approximates it; bounds were set here for any values at or beyond the usual limits of such assays
- Condition Description: source organism: Yersinia pestis Nepal516
pKd: −log10 of the molar value.
Recorded Metric: pKd

Consider FYFNWNTPI . Its measured pKd is ≥ 10.00

----------
- Experimental Target: HLA-A*29:02
- Assay Notes: IEDB peptide-MHC binding, purified MHC/competitive/radioactivity; filed as Kd, often an IC50 or EC50 that approximates it; bounds were set here for any values at or beyond the usual limits of such assays
- Condition Description: source organism: SARS coronavirus Tor2
Recorded Metric: Kd (µM)
Numbers only, in µM.

// solved cases for Kd follow
Sequence String: GYLKPTTFML
Unit Annotation: µM
Kd: 1.02

Sequence String: LYEQVVMDY
Unit Annotation: µM
Kd: 0.0122

Sequence String: EMVMCGGSLY
Unit Annotation: µM
Kd: 0.0139

Sequence String: DHEFVDEFY
Unit Annotation: µM
Kd: 1.17

Sequence String: EYADVFHLY
Unit Annotation: µM
Kd: 0.0488

Sequence String: TSQKSIVAY
Unit Annotation: µM
Kd: 2.08

Sequence String: DEEPMELDY
Unit Annotation: µM
Kd: 1.13

Sequence String: DTVWEVQGY
Unit Annotation: µM
Kd: 4.25

Switching to the query record.
Consider QMYKTPTLKY . Its measured Kd is 0.00681

----------
- Experimental Target: HLA-A*26:01
- Assay Notes: IEDB peptide-MHC binding, purified MHC/direct/fluorescence; filed as Kd, often an IC50 or EC50 that approximates it; bounds were set here for any values at or beyond the usual limits of such assays
- Condition Description: source organism: Influenza A virus (A/Taiwan/2/2006(H1N1))
Recorded Metric: Kd

For GTSKIKMKW on HLA-A*26:01, measured Kd was ≥ 20 µM

----------
- Experimental Target: HLA-A*02:12
- Assay Notes: IEDB peptide-MHC binding, purified MHC/competitive/fluorescence; filed as Kd, often an IC50 or EC50 that approximates it; bounds were set here for any values at or beyond the usual limits of such assays
- Condition Description: source organism: Cryptosporidium parvum Iowa II
Recorded Metric: Kd

Consider KIFKVTGEF . Its measured Kd is ≥ 20 µM

----------
- Experimental Target: HLA-C*15:02
- Assay Notes: IEDB peptide-MHC binding, purified MHC/direct/fluorescence; filed as Kd, often an IC50 or EC50 that approximates it; bounds were set here for any values at or beyond the usual limits of such assays
- Condition Description: source organism: Yersinia pestis Nepal516
Recorded Metric: Kd (µM)
Answers are plain numbers, in µM.

For FYFNWNTPI on HLA-C*15:02, measured Kd was 1.06

----------
- Experimental Target: HLA-B*48:01
- Assay Notes: IEDB peptide-MHC binding, purified MHC/direct/fluorescence; filed as Kd, often an IC50 or EC50 that approximates it; bounds were set here for any values at or beyond the usual limits of such assays
- Condition Description: source organism: Marburg virus - Musoke, Kenya, 1980
pKd: −log10 of the molar value.
Recorded Metric: pKd

Sequence String: NQECWDSVF
Experimental Target: HLA-B*48:01
pKd: ≤ 4.70

Switching to the query record.
Consider KRLLLKLDF . Its measured pKd is ≤ 4.70
